# system: Acetylcholinesterase (Homo sapiens)
# protocolSummary: Acetylcholinesterase (AChE) small molecule antagonists: fluorescence cell-based qHTS assay (AID 1347398); further: on the % scale 0 is the no-effect control and ±100 the full control effect; nearly all actives have a fitted effect of over 50% in size
# conditionNotes: SH-SY5Y cells; AChE activity; series mostly up to 115 µM
Results filed as inconclusive are left out. Active and inactive are the calls of the source. The call rests on the fitted dose curve.
propertyLabel: outcome

Worked set:
[
  {
    "compound": "CC(C)(C)c1ccc(OCC2CO2)cc1 (configuration not stated)",
    "propertyLabel": "outcome",
    "endpointResult": "inactive"
  },
  {
    "compound": "CCc1cccc(CC)c1NC(=O)CN(CC(=O)O)CC(=O)O",
    "propertyLabel": "outcome",
    "endpointResult": "inactive"
  },
  {
    "compound": "CC1OC(=O)C(C)OC1=O (configuration not stated)",
    "propertyLabel": "outcome",
    "endpointResult": "inactive"
  },
  {
    "compound": "CCOCCOCCOC(C)=O",
    "propertyLabel": "outcome",
    "endpointResult": "inactive"
  },
  {
    "compound": "CC(=O)SCC(CC(=O)c1ccc(C)cc1)C(=O)O (configuration not stated)",
    "propertyLabel": "outcome",
    "endpointResult": "inactive"
  }
]

Tell us which outcome value is on record for COC(=O)C1=C(C)NC(C)=C(C(=O)OC(C)C)C1c1cccc2nonc12 (configuration not stated) inactive

Input O=C(Nc1ccc(Cl)c(Cl)c1)c1cc(Cl)cc(Cl)c1O , output reported outcome. inactive

----------
# system: Acetylcholinesterase (Homo sapiens) (UniProt P22303)
# Sequence (P22303 whole entry, looked up): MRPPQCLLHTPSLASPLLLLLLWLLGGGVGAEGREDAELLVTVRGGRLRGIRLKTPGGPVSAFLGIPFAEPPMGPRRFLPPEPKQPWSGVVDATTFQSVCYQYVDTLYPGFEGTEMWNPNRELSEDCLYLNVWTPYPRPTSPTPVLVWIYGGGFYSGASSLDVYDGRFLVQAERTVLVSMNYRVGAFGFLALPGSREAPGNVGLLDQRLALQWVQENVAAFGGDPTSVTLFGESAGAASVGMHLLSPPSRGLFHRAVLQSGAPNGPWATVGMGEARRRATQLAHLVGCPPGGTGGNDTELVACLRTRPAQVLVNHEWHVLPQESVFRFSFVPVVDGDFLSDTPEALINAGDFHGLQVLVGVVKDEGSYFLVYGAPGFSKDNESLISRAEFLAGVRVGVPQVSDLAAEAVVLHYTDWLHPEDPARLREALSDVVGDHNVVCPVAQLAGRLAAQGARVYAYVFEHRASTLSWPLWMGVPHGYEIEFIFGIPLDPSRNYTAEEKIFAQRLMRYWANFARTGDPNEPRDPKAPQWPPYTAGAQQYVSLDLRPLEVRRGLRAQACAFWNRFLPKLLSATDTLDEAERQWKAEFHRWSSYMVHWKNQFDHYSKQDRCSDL
# protocolSummary: Acetylcholinesterase (AChE) small molecule antagonists: fluorescence cell-based qHTS assay (AID 1347398); further: on the % scale 0 is the no-effect control and ±100 the full control effect; nearly all actives have a fitted effect of over 50% in size
# conditionNotes: SH-SY5Y cells; series mostly up to 115 µM
Inconclusive results are not listed. The source made the active and inactive calls. Calls follow the shape of the full dose curve.
propertyLabel: activity change, negative = inhibition

Check out these entries, answers already filled in.
[
  {
    "compound": "NC[C@H]1O[C@H](O[C@H]2[C@H](O)[C@@H](O[C@H]3O[C@H](CO)[C@@H](O)[C@H](N)[C@H]3O)[C@H](N)C[C@@H]2N)[C@H](O)[C@@H](O)[C@@H]1O",
    "activity change, negative = inhibition": "2.3% [at 10.5 µM] (inactive)"
  },
  {
    "compound": "CN1CCN(CC(=O)N2c3ccccc3C(=O)Nc3cccnc32)CC1",
    "activity change, negative = inhibition": "5.87% [at 10.5 µM] (inactive)"
  },
  {
    "compound": "NCC(=O)O",
    "activity change, negative = inhibition": "6.61% [at 23.8 µM] (inactive)"
  },
  {
    "compound": "CCCCN1C=CN(C)C1",
    "activity change, negative = inhibition": "-2.29% [at 23.8 µM] (inactive)"
  },
  {
    "compound": "[O]=[Mo](=[O])=[O]",
    "activity change, negative = inhibition": "0.826% [at 23.8 µM] (inactive)"
  }
]

Give activity change, negative = inhibition for C=CCCCCCCCCCCCCCC tested on Acetylcholinesterase (Homo sapiens) (UniProt P22303). 5.43% [at 23.8 µM] (inactive)

System Acetylcholinesterase (Homo sapiens) (UniProt P22303). Read-out activity change, negative = inhibition. Item C1CCCCCCCCCCC1 . Report value. 7.82% [at 23.8 µM] (inactive)

Enter recorded activity change, negative = inhibition with Acetylcholinesterase (Homo sapiens) (UniProt P22303) for CC1CN(c2cc3c(cc2F)c(=O)c(C(=O)O)cn3-c2ccc(F)cc2F)CCN1 (configuration not stated) here. 3.28% [at 10.5 µM] (inactive)

Write down the reported activity change, negative = inhibition (system: Acetylcholinesterase (Homo sapiens) (UniProt P22303)) of COc1cc2nc(N3CCN(C(=O)c4ccco4)CC3)nc(N)c2cc1OC -22.9% [at 23.8 µM] (inactive)

Report activity change, negative = inhibition under test system Acetylcholinesterase (Homo sapiens) (UniProt P22303) for CCCCCCCCCCCCCCCCCCCl . 5.41% [at 10.5 µM] (inactive)

State the measured activity change, negative = inhibition (Acetylcholinesterase (Homo sapiens) (UniProt P22303)) of CCCCCCCCCCCCCCN(C)C 2.04% [at 23.8 µM] (inactive)

Jot down activity change, negative = inhibition (Acetylcholinesterase (Homo sapiens) (UniProt P22303)) of c1ccc(-c2ccc(-c3ccccc3)cc2)cc1 . 6.58% [at 23.8 µM] (inactive)
